ASSAY SYSTEM: von Hippel-Lindau disease tumor suppressor/Dual specificity mitogen-activated protein kinase kinase 2/Dual specificity mitogen-activated protein kinase kinase 1 (Homo sapiens) (UniProt P36507+Q02750+P40337)
Sequence (P36507 whole entry, looked up): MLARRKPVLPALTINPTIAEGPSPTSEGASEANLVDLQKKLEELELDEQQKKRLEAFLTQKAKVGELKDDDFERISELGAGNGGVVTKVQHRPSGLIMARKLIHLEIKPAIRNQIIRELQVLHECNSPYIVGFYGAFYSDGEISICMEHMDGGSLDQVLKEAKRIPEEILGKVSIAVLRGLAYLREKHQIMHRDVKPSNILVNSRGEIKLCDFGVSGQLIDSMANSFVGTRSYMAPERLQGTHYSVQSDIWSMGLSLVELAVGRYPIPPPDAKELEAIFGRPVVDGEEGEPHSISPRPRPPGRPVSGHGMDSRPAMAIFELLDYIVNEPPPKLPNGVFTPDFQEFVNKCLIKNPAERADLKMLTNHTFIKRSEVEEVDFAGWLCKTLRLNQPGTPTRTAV
Sequence (P40337 whole entry, looked up): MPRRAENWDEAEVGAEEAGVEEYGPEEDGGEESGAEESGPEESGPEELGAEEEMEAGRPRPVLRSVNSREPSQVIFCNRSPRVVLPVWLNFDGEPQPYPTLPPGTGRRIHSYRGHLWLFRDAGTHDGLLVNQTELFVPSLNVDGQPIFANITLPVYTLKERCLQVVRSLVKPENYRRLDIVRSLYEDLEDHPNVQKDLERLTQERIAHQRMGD
Sequence (Q02750 whole entry, looked up): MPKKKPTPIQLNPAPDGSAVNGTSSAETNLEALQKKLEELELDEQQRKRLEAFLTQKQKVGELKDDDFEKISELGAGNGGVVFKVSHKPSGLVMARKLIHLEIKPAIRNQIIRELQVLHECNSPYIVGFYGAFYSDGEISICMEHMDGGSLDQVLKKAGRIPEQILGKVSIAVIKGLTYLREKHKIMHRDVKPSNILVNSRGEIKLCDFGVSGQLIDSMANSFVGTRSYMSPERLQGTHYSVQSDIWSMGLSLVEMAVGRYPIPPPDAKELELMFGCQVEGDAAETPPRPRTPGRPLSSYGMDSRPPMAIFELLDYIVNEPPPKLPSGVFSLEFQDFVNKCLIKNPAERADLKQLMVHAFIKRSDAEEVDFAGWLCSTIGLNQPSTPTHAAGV
ASSAY OVERVIEW: Protac activity at VHL/MEK in human A375 cells assessed as MEK1 degradation at 10 uM incubated for 16 hrs in presence of poly(I:C) stimulation by Surefire assay relative to control
Type: cell-based
OBSERVED PROPERTY: Activity (%)
Please respond with the number in % and leave the unit unwritten.

Known Activity results, listed for orientation:
• Cc1ncsc1-c1ccc([C@H](C)NC(=O)[C@@H]2C[C@@H](O)CN2C(=O)[C@@H](NC(=O)COCCOCCOCCNC(=O)COc2ccc(S(=O)(=O)Nc3cc(C)c(=O)n(C)c3Nc3ccc(I)cc3F)cc2)C(C)(C)C)cc1 = 95
• Cc1cc(NS(=O)(=O)c2ccccc2)c(Nc2ccc(I)cc2F)n(C)c1=O = 1
• Cc1ncsc1-c1ccc([C@H](C)NC(=O)[C@@H]2C[C@@H](O)CN2C(=O)[C@@H](NC(=O)COCCOCCOCCOCCNC(=O)CCc2ccc(S(=O)(=O)Nc3cc(C)c(=O)n(C)c3Nc3ccc(I)cc3F)cc2)C(C)(C)C)cc1 = 96

Now consider the entry below.
## Input Endpoint output: Activity of Cc1ncsc1-c1ccc([C@H](C)NC(=O)[C@@H]2C[C@@H](O)CN2C(=O)[C@@H](NC(=O)COCCOCCOCCNC(=O)CCc2ccc(S(=O)(=O)Nc3cc(C)c(=O)n(C)c3Nc3ccc(I)cc3F)cc2)C(C)(C)C)cc1 . Value?
## Output 94

====

ASSAY OVERVIEW: Lipophilicity, log D of compound
Assay type: physicochemical
CONDITION DESCRIPTION: octanol/water
Entries and their measured logD follow.
Just the number, please, no unit attached.

• Cc1cc(NS(=O)(=O)c2ccccc2)c(Nc2ccc(I)cc2F)n(C)c1=O = 3.9

As a next step, examine the compound that follows.
## Input Look up logD for this compound: Cc1ncsc1-c1ccc([C@H](C)NC(=O)[C@@H]2C[C@@H](O)CN2C(=O)[C@@H](NC(=O)COCCOCCOCCOCCNC(=O)CCc2ccc(S(=O)(=O)Nc3cc(C)c(=O)n(C)c3Nc3ccc(I)cc3F)cc2)C(C)(C)C)cc1
## Output 4.3

====

ASSAY SYSTEM: von Hippel-Lindau disease tumor suppressor/Dual specificity mitogen-activated protein kinase kinase 2/Dual specificity mitogen-activated protein kinase kinase 1 (Homo sapiens) (UniProt P36507+Q02750+P40337)
ASSAY OVERVIEW: Protac activity at VHL/MEK in human A375 cells assessed as MEK2 degradation at 10 uM incubated for 16 hrs in presence of poly(I:C) stimulation by immunoblotting analysis
Type: cell-based
Active and inactive are the calls of the source. No cut-off for these calls is given here.
OBSERVED PROPERTY: Activity

• Cc1ncsc1-c1ccc([C@H](C)NC(=O)[C@@H]2C[C@@H](O)CN2C(=O)[C@@H](NC(=O)COCCOCCOCCNC(=O)COc2ccc(S(=O)(=O)Nc3cc(C)c(=O)n(C)c3Nc3ccc(I)cc3F)cc2)C(C)(C)C)cc1 = Active
• Cc1ncsc1-c1ccc([C@H](C)NC(=O)[C@@H]2C[C@@H](O)CN2C(=O)[C@@H](NC(=O)COCCOCCOCCNC(=O)CCc2ccc(S(=O)(=O)Nc3cc(C)c(=O)n(C)c3Nc3ccc(I)cc3F)cc2)C(C)(C)C)cc1 = Active
• Cc1ncsc1-c1ccc([C@H](C)NC(=O)[C@@H]2C[C@@H](O)CN2C(=O)[C@@H](NC(=O)COCCOCCOCCOCCNC(=O)CCc2ccc(S(=O)(=O)Nc3cc(C)c(=O)n(C)c3Nc3ccc(I)cc3F)cc2)C(C)(C)C)cc1 = Active

====

Measured pIC50 values are reported for all entries that follow.
ASSAY SYSTEM: Dual specificity mitogen-activated protein kinase kinase 1 (Homo sapiens)
Sequence (Q02750 whole entry): as the sequence (Q02750 whole entry, looked up) above
ASSAY OVERVIEW: Inhibition of MEK1 (unknown origin) incubated for 60 mins in presence of ATP by Kinase Glo luminescence assay
// pIC50: -log10(molar conc.)

Worked set:
* Cc1cc(NS(=O)(=O)c2ccccc2)c(Nc2ccc(I)cc2F)n(C)c1=O | 6.40
* Cc1ncsc1-c1ccc([C@H](C)NC(=O)[C@@H]2C[C@@H](O)CN2C(=O)[C@@H](NC(=O)COCCOCCOCCNC(=O)COc2ccc(S(=O)(=O)Nc3cc(C)c(=O)n(C)c3Nc3ccc(I)cc3F)cc2)C(C)(C)C)cc1 | 6.80
* Cc1ncsc1-c1ccc([C@H](C)NC(=O)[C@@H]2C[C@@H](O)CN2C(=O)[C@@H](NC(=O)COCCOCCOCCNC(=O)CCc2ccc(S(=O)(=O)Nc3cc(C)c(=O)n(C)c3Nc3ccc(I)cc3F)cc2)C(C)(C)C)cc1 | 7.00

Kindly review the next molecule as well.
## Input pIC50 for Cc1ncsc1-c1ccc([C@H](C)NC(=O)[C@@H]2C[C@@H](O)CN2C(=O)[C@@H](NC(=O)COCCOCCOCCOCCNC(=O)CCc2ccc(S(=O)(=O)Nc3cc(C)c(=O)n(C)c3Nc3ccc(I)cc3F)cc2)C(C)(C)C)cc1 ?
## Output 7.00

====

ASSAY SYSTEM: von Hippel-Lindau disease tumor suppressor/Dual specificity mitogen-activated protein kinase kinase 2/Dual specificity mitogen-activated protein kinase kinase 1 (Homo sapiens) (UniProt P36507+Q02750+P40337)
ASSAY OVERVIEW: Protac activity at VHL/MEK in human A375 cells assessed as MEK1 degradation at 10 uM incubated for 16 hrs in presence of poly(I:C) stimulation by immunoblotting analysis
Type: cell-based
Active and inactive are the calls of the source. The calls are words filed in the database; no cut-off is given here.
Field 'call' accepts label 1 for active, label 0 for inactive

- Cc1cc(NS(=O)(=O)c2ccccc2)c(Nc2ccc(I)cc2F)n(C)c1=O: label 0
- Cc1ncsc1-c1ccc([C@H](C)NC(=O)[C@@H]2C[C@@H](O)CN2C(=O)[C@@H](NC(=O)COCCOCCOCCNC(=O)CCc2ccc(S(=O)(=O)Nc3cc(C)c(=O)n(C)c3Nc3ccc(I)cc3F)cc2)C(C)(C)C)cc1: label 1
- Cc1ncsc1-c1ccc([C@H](C)NC(=O)[C@@H]2C[C@@H](O)CN2C(=O)[C@@H](NC(=O)COCCOCCOCCNC(=O)COc2ccc(S(=O)(=O)Nc3cc(C)c(=O)n(C)c3Nc3ccc(I)cc3F)cc2)C(C)(C)C)cc1: label 1

Would you kindly look at the next entry?
## Input Field: outcome | Entry: Cc1ncsc1-c1ccc([C@H](C)NC(=O)[C@@H]2C[C@@H](O)CN2C(=O)[C@@H](NC(=O)COCCOCCOCCOCCNC(=O)CCc2ccc(S(=O)(=O)Nc3cc(C)c(=O)n(C)c3Nc3ccc(I)cc3F)cc2)C(C)(C)C)cc1
## Output label 1

====

// reported pIC50 per item
System: A-375
ASSAY OVERVIEW: Antiproliferative activity against human A375 cells assessed as reduction in cell viability
Type: functional, cell-based
pIC50 here is simply -log10 of the concentration when that concentration is written in mol/L.

- CC(=O)Nc1cccc(-n2c(=O)n(C3CC3)c(=O)c3c(Nc4ccc(I)cc4F)n(C)c(=O)c(C)c32)c1: 9.13

## Input Field request: pIC50 | item: O=C(c1ccc(F)c(F)c1Nc1ccc(I)cc1F)N1CC(O)([C@@H]2CCCCN2)C1
## Output 8.30

====

ASSAY SYSTEM: von Hippel-Lindau disease tumor suppressor/Dual specificity mitogen-activated protein kinase kinase 2/Dual specificity mitogen-activated protein kinase kinase 1 (Homo sapiens) (UniProt P36507+Q02750+P40337)
ASSAY OVERVIEW: Protac activity at VHL/MEK in human A375 cells assessed as MEK1 degradation at 1 uM incubated for 16 hrs in presence of poly(I:C) stimulation by Surefire assay relative to control
Type: cell-based
OBSERVED PROPERTY: Activity (%)
API: value field is a number in %; no unit string.

• Cc1ncsc1-c1ccc([C@H](C)NC(=O)[C@@H]2C[C@@H](O)CN2C(=O)[C@@H](NC(=O)COCCOCCOCCOCCNC(=O)CCc2ccc(S(=O)(=O)Nc3cc(C)c(=O)n(C)c3Nc3ccc(I)cc3F)cc2)C(C)(C)C)cc1 = 91
• Cc1ncsc1-c1ccc([C@H](C)NC(=O)[C@@H]2C[C@@H](O)CN2C(=O)[C@@H](NC(=O)COCCOCCOCCNC(=O)COc2ccc(S(=O)(=O)Nc3cc(C)c(=O)n(C)c3Nc3ccc(I)cc3F)cc2)C(C)(C)C)cc1 = 72
• Cc1cc(NS(=O)(=O)c2ccccc2)c(Nc2ccc(I)cc2F)n(C)c1=O = -7

## Input # Activity lookup, item Cc1ncsc1-c1ccc([C@H](C)NC(=O)[C@@H]2C[C@@H](O)CN2C(=O)[C@@H](NC(=O)COCCOCCOCCNC(=O)CCc2ccc(S(=O)(=O)Nc3cc(C)c(=O)n(C)c3Nc3ccc(I)cc3F)cc2)C(C)(C)C)cc1
## Output 90
